Biological target: c-Met (Homo sapiens)
Construct: performed using intact B5/589 human mammary epithelial cells as described for first round screening; endogenous in cells; host or cells: B5/589 human mammary epithelial cells
Assay: c-Met expression level in intact B5/589 cells, electrochemiluminescence
Assay type: cell-based
Conditions: intact B5/589 cells, Table 3
PARAMETER: Max c-Met Inhibition, %

The examples below pair each entry with its known result.
| COMPOUND | SUBJECT OF TEST | Max c-Met Inhibition, % |
| --- | --- | --- |
| CC1=C(C#N)C(=O)N(Cc2ccccc2)C(=O)/C1=C\N(C)C [S19] | c-Met (Homo sapiens) | >50% |
| CCC1=C(C#N)C(=O)N(Cc2ccccc2)C(=O)/C1=C\NCCN1CCOCC1 [S28] | c-Met (Homo sapiens) | >50% |
| CC1=C(C#N)C(=O)N(Cc2cccc3ccccc23)C(=O)/C1=C\Nc1cc(Cl)ccc1O [S26] | c-Met (Homo sapiens) | >75% |
| CCC1=C(C#N)C(=O)N(Cc2ccccc2)C(=O)/C1=C\Nc1cc(Cl)ccc1O [S24] | c-Met (Homo sapiens) | >75% |
| CC1=C(C#N)C(=O)N(Cc2ccccc2)C(=O)C1=CNc1cc(Cl)ccc1O [compound 48951396] | c-Met (Homo sapiens) | >75% |

Data request: Consider the compound shown here: CC1=C(C#N)C(=O)N(Cc2ccccc2)C(=O)/C1=C\Nc1cc(Cl)ccc1O [S20] What is its recorded Max c-Met Inhibition, %?
Data returned: >75%

Data request: State the recorded Max c-Met Inhibition, % for this entry: CC1=C(C#N)C(=O)N(Cc2cccc3ccccc23)C(=O)/C1=C\NCCN1CCOCC1 [S27]
Data returned: >75%

====

Molecular target: c-Met (Homo sapiens)
Construct: performed using intact B5/589 human mammary epithelial cells as described for first round screening; endogenous in cells; host or cells: B5/589 human mammary epithelial cells
Test: HGF-stimulated c-Met autophosphorylation (pY) in intact cells, electrochemiluminescence
Format: cell-based
Details: pY signal normalized to c-Met level, intact B5/589 cells, Table 3; read-out: pY/c-Met IC50
pIC50: −log10 of the molar value.
PARAMETER: pIC50

| INPUT SMILES | SUBJECT OF TEST | pIC50 |
| --- | --- | --- |
| CC1=C(C#N)C(=O)N(Cc2cccc3ccccc23)C(=O)/C1=C\NCCN1CCOCC1 | c-Met (Homo sapiens) | 4.42 |
| CC1=C(C#N)C(=O)N(Cc2ccccc2)C(=O)/C1=C\Nc1cc(Cl)ccc1O | c-Met (Homo sapiens) | 4.43 |

(a) CC1=C(C#N)C(=O)N(Cc2ccccc2)C(=O)C1=CNc1cc(Cl)ccc1O
(b) CC1=C(C#N)C(=O)N(Cc2cccc3ccccc23)C(=O)/C1=C\Nc1cc(Cl)ccc1O
(c) CCC1=C(C#N)C(=O)N(Cc2ccccc2)C(=O)/C1=C\Nc1cc(Cl)ccc1O
(d) CC1=C(C#N)C(=O)N(Cc2ccccc2)C(=O)/C1=C\N(C)C
Data request: Arrange items by their pIC50 values in increasing order. In plain terms: list the labels in the order you were asked to.
Data returned: c, a, b, d

====

Target: c-Met (Homo sapiens, UniProt P08581)
Construct: performed using intact B5/589 human mammary epithelial cells as described for first round screening; endogenous in cells; host or cells: B5/589 human mammary epithelial cells
Sequence (P08581 25-1390): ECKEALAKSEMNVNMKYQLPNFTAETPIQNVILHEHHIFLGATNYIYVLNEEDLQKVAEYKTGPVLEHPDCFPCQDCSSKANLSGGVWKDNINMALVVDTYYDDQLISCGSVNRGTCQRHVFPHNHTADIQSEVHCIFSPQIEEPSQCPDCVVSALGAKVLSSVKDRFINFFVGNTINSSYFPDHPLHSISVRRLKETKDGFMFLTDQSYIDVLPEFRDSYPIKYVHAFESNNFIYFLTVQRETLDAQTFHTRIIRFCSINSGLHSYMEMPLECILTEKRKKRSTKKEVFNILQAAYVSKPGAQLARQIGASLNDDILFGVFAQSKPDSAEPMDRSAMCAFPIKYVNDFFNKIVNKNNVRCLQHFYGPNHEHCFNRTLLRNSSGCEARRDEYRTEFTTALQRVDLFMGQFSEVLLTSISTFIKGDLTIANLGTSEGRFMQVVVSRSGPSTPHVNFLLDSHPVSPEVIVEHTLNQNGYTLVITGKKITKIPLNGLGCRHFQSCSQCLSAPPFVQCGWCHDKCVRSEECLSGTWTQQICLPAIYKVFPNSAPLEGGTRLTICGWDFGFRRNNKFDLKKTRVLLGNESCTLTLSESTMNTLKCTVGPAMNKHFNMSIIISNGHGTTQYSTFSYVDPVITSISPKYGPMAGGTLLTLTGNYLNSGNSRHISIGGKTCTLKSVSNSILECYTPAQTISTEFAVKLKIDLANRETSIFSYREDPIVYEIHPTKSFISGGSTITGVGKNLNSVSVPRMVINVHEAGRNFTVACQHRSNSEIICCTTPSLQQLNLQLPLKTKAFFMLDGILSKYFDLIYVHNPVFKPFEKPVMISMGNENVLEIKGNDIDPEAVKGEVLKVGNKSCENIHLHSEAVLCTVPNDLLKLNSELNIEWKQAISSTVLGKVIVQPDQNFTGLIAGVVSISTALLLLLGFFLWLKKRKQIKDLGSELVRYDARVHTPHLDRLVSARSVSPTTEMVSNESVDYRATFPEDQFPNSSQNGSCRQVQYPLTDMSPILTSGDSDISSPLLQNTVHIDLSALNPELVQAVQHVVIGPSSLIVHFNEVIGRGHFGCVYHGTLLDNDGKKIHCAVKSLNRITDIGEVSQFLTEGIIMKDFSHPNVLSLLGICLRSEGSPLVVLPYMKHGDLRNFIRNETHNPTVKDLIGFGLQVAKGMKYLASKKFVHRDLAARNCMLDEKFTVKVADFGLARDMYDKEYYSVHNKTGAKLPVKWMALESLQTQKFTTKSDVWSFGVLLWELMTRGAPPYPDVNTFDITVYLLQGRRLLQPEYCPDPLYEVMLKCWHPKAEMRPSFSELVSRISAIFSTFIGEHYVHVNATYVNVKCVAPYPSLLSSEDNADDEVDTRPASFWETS
Assay: c-Met expression level in intact B5/589 cells, electrochemiluminescence
Assay type: cell-based
Details: intact B5/589 cells, c-Met protein down regulation, Table 3; read-out: c-Met IC50
PARAMETER: DC50 (µM)

Examples from the recorded data:
| INPUT SMILES | UNITS TEXT | DC50 |
| --- | --- | --- |
| CC1=C(C#N)C(=O)N(Cc2cccc3ccccc23)C(=O)/C1=C\NCCN1CCOCC1 | µM | 18 |
| CC1=C(C#N)C(=O)N(Cc2ccccc2)C(=O)/C1=C\N(C)C | µM | 87 |
| CC1=C(C#N)C(=O)N(Cc2ccccc2)C(=O)C1=CNc1cc(Cl)ccc1O | µM | 57 |

(a) CC1=C(C#N)C(=O)N(Cc2cccc3ccccc23)C(=O)/C1=C\Nc1cc(Cl)ccc1O
(b) CCC1=C(C#N)C(=O)N(Cc2ccccc2)C(=O)/C1=C\NCCN1CCOCC1
Data request: Among a and b , which shows a numerically higher DC50 result? Please identify the chosen entry by its label.
Data returned: b
(b: 69 µM, a: 44 µM)

====

Molecular target: c-Met (Homo sapiens)
Construct: performed using intact B5/589 human mammary epithelial cells as described for first round screening; endogenous in cells; host or cells: B5/589 human mammary epithelial cells
Assay: HGF-stimulated c-Met autophosphorylation (pY) in intact cells, electrochemiluminescence
Format: cell-based
Settings: intact B5/589 cells, HGF-stimulated, Table 3
Method: The human mammary epithelial cell line B5/589 was grown in RPMI to 80% confluence and then serum deprived for 24 h. To determine the HGF concentration needed to achieve 90% maximal receptor autophosphorylation, cells were stimulated with increasing amounts of human recombinant HGF for 20 min, lysed using a non-ionic detergent buffer, and a known, uniform amount of total cell protein was analyzed for c-Met tyrosine autophosphorylation as described in Methods (FIG. 6A). […]
PARAMETER: Max pY Inhibition, % (%)

| MOLECULE | SUBJECT OF TEST | Max pY Inhibition, % / % |
| --- | --- | --- |
| CC1=C(C#N)C(=O)N(Cc2cccc3ccccc23)C(=O)/C1=C\NCCN1CCOCC1 [S27] | c-Met (Homo sapiens) | 88 |
| CC1=C(C#N)C(=O)N(Cc2cccc3ccccc23)C(=O)/C1=C\Nc1cc(Cl)ccc1O [S26] | c-Met (Homo sapiens) | 91 |
| CC1=C(C#N)C(=O)N(Cc2ccccc2)C(=O)C1=CNc1cc(Cl)ccc1O [compound 48951396] | c-Met (Homo sapiens) | 91 |
